- Test: Acute toxicity in po dosed BALB/c mouse assessed as maximum tolerated dose
- Assay type: organism-based
- Experimental setup: BALB/c, in vivo, read-out: MTD
Readout: MTD (mg/kg)
Quick note: give the figure in mg/kg, leave out the unit.

Given "O=C1c2ccccc2C(=O)c2c1nnn2-c1cc(F)c(-c2ccccc2F)c(F)c1" , state its recorded MTD.
400

* * *

- Tested on: NAMALVA
- Test: Antiproliferative activity against human NAMALWA cells assessed as reduction in cell viability measured after 48 hrs by MTT assay
- Assay type: functional, cell-based
- Experimental setup: Homo sapiens, NAMALVA, 48 h
pIC50: −log10 of the molar value.
Recorded pIC50 for the following compounds

// solved cases for pIC50 follow
{"Compound": "O=C1c2ccccc2C(=O)c2c1nnn2-c1ccc(-c2cccc(O)c2)cc1", "Subject of test": "NAMALVA", "pIC50": "< 5.00"}
{"Compound": "COCc1cccc(-c2c(F)cc(-n3nnc4c3C(=O)c3ccccc3C4=O)cc2F)c1", "Subject of test": "NAMALVA", "pIC50": "< 5.00"}
{"Compound": "O=C1c2ccccc2C(=O)c2c1nnn2-c1ccc(-c2ccccc2)cc1", "Subject of test": "NAMALVA", "pIC50": 5.73}
{"Compound": "OC1c2ccccc2C(O)c2c1nnn2-c1cc(F)c(-c2ccccc2F)c(F)c1 (stereo not given)", "Subject of test": "NAMALVA", "pIC50": "< 5.00"}
{"Compound": "O=C1c2ccccc2C(=O)c2c1nnn2-c1cc(F)c(-c2cccc(F)c2)c(F)c1", "Subject of test": "NAMALVA", "pIC50": "< 5.00"}

Given "Nc1ccc(-c2ccc(-n3nnc4c3C(=O)c3ccccc3C4=O)cc2)cc1" , state its recorded pIC50.
< 5.00

Given "Nc1ccccc1-c1ccc(-n2nnc3c2C(=O)c2ccccc2C3=O)cc1" , state its recorded pIC50.
5.30

Given "O=C1c2ccccc2C(=O)c2c1nnn2-c1cc(F)c(-c2ccccc2F)c(F)c1" , state its recorded pIC50.
6.00

Given "Nc1cccc(-c2ccc(-n3nnc4c3C(=O)c3ccccc3C4=O)cc2)c1" , state its recorded pIC50.
< 5.00

Given "COC(=O)Cc1cccc(-c2c(F)cc(-n3nnc4c3C(=O)c3ccccc3C4=O)cc2F)c1" , state its recorded pIC50.
< 5.00

* * *

- Test: Stability of the compound in pH 1 to 7.4 buffer assessed as decrease in compound concentration at 0.01 mg/ml measured up to 24 hrs by LC-MS analysis
- Format: physicochemical
- Experimental setup: read-out: Drug degradation
Recorded degraded at 24 h, 0.01 mg/ml for the following molecules

{"Molecule": "Cc1c(-c2ccc(-c3ccccc3F)cc2)nc2ccc(F)cc2c1C(=O)O [BREQUINAR]", "degraded at 24 h, 0.01 mg/ml": "6.3 to 12.1%"}

Let us move to another entry and its degraded at 24 h, 0.01 mg/ml.
Given "O=C1c2ccccc2C(=O)c2c1nnn2-c1cc(F)c(-c2ccccc2F)c(F)c1" , state its recorded degraded at 24 h, 0.01 mg/ml.
1.6 to 9%

* * *

- Test: Stability of the compound in pH 9 buffer assessed as decrease in compound concentration at 0.01 mg/ml measured up to 24 hrs by LC-MS analysis
- Assay type: physicochemical
- Experimental setup: read-out: Drug degradation
Readout: degraded at 24 h, 0.01 mg/ml (%)
Quick note: give the figure in %, leave out the unit.

{"Mol": "Cc1c(-c2ccc(-c3ccccc3F)cc2)nc2ccc(F)cc2c1C(=O)O", "degraded at 24 h, 0.01 mg/ml / %": 75.4}

Let us move to another entry and its degraded at 24 h, 0.01 mg/ml.
Given "O=C1c2ccccc2C(=O)c2c1nnn2-c1cc(F)c(-c2ccccc2F)c(F)c1" , state its recorded degraded at 24 h, 0.01 mg/ml.
15
